System: L1210 leukemia ip in BDF1 mice, survival T/C
Experiment: NCI In Vivo Anticancer Drug Screen. Data for tumor model L1210 Leukemia (intraperitoneal) in B6D2F1 (BDF1) mice
Details: endpoint: mean survival time; dose: 40.0 mg/kg/injection; schedule: Q01DX009 (ip); vehicle: saline; higher = longer survival
Inconclusive results and toxic doses are left out.
A collection of compounds and their measured T/C

>>> reported("C[n+]1cc2cc(O)c(O)cc2c2ccc3cc(O)c(O)cc3c21")
"102 % of control"
>>> reported("COC(=O)C1C(O)C(C)C(O)C(C)C=C(C)C2=C3C(=C(C)C(=O)c4c(O)c(c(C)c(OC(C)=O)c43)NC(=O)C(C)=C/C=C\\C(C)C(O)C(C)C1O)OCO2 (centres undefined)")
"100 % of control"
>>> reported("CS(=O)(=O)Nc1ccc(Nc2c3ccccc3nc3ccccc23)cc1")
"107 % of control"

Exercise: Report measured T/C; entry is CCC1CCN(CC)CC1
Key: 94 % of control
